Molecular target: T1, UNK ZnF1-3 (human, UniProt Q9C0B0 31-174)
T1 sequence: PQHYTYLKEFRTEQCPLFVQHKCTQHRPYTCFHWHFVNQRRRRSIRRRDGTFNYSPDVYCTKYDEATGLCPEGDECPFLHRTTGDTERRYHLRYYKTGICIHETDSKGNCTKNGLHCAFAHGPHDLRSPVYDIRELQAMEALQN
Test: nsRBNS (natural sequence RNA bind-n-seq); RBNS binding buffer (assumed for nsRBNS): 25 mM Tris pH 7.5, 150 mM KCl, 3 mM MgCl2, 0.01% Triton X-100, 500 ug/ml BSA, 20 U/ml SUPERase-In, 4 C; UNK is unkempt and MSI1 is Musashi-1; names of the RNAs are library labels; protein concentration not given here; high values mean tight binding
Whole data set: some 24,000 sequences, median “enrichment r” near 0.99, cut for the highest 2% near 3.7. The list comes from a sample in which the highest values are over-represented; it also holds close analogues and randomly drawn sequences.

binder	binding signal
chr3:9412954:9412955:+_ENSG00000134077_ENST00000452837|hu_mus|hu_hu_hu_mus_False|58_68 (ssRNA) RNA: GGGAGUUCUACAGUCCGACGAUCGGUUGAUAUCUCUUCUUUGAUGGCUGGAUUUUCAUAAUAGUCCAAGAUAUGAGAAUCUAAAGCGCUGCUGGCAUGCUUUUUCUUACCAUCUUUCUCAUCUGCUUUGUCUCCUUGUCCACACAACAGAGGAUUGAGCAUCA	0.465 enrichment R
chr8:72542918:72542919:-_ENSMUSG00000031858_ENSMUST00000050561|mus_mus|FALSE|FALSE (ssRNA) RNA: GGGAGUUCUACAGUCCGACGAUCAGCUAUCAAGCCAAGAGGAGCUGAGCUGGUCCCAUAACUGUCCUCCAUGGGAAAGCUAAAUAGCUGCCAGGAAGGAACCCUCUCAUUCAGGUCCAAUGGGACUUCUGCCUGAUGCUUAGGCAACAGAGGAUUGAGCAUCA	1.1 enrichment R

// data source = paper PMC12136788
